biological target: Estrogen receptor (Homo sapiens)
Sequence (P03372 whole entry): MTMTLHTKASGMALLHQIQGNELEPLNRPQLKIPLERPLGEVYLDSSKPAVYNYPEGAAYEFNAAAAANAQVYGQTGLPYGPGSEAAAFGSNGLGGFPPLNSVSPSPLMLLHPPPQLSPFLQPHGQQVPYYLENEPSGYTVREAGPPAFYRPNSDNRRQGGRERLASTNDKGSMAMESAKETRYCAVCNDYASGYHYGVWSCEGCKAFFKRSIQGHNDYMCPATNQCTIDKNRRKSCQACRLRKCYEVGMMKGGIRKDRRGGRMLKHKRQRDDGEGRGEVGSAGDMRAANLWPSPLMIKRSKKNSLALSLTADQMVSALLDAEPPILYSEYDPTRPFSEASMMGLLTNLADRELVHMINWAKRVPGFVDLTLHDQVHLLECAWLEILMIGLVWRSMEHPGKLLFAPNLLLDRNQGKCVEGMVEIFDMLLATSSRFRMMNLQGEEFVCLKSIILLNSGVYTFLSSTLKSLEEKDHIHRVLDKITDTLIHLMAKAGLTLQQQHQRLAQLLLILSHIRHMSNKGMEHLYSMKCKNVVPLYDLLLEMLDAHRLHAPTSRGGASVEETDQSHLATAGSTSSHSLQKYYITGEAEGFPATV
measure-name: pEC50
// scale note: pEC50 = -log10(conc_M); give the bare number

Q. Recorded pEC50 for C#CC[C@]12CC[C@H](O)CC1=CCC1C2CC[C@@]2(C)C1CC[C@@H]2O (stereo partly drawn) , please?
A. 6.01

Q. I have this compound here, C[C@]12CCC3C(CC=C4C[C@@H](O)CC[C@@]43/C=C/F)C1CC[C@@H]2O (stereo partly drawn) , and I need its recorded pEC50.
A. 6.49

Now look at this one.
Q. Value lookup for pEC50; key = C[C@]12CCC3C(CC=C4C[C@@H](O)CC[C@@]43C=O)C1CC[C@@H]2O (stereo partly drawn)
A. 6.07

Origin of measurements: ChEMBL document CHEMBL1149417
